Every entry's value here was drawn from patent US20210355194A1.

study-target: CV S-protein construct 6 trimer TP31001F (SARS-CoV-2, UniProt P0DTC2 14-1208)
procedure-text: SPR
pKd: −log10 of the molar value.
Items are presented alongside their recorded pKd.

>  <binder>
variant 6-53 (Fc fusion) VHH: EVQLVESGGGLVQPGGSLRLSCAASGISINTNVMGWFRQAPGKEREFVAAISTGSVTIYADSVKGRFTISADNSKNTAYLQMNSLKPEDTAVYYCARVDDFGYFDLWGQGTLVTVSS

>  <pKd>
7.62

$$$$
>  <binder>
variant 6-82 (Fc fusion) VHH: EVQLVESGGGLVQPGGSLRLSCAASGSSLDAYGMGWFRQAPGKEREFVAAISWGGGSIYYADSVKGRFTISADNSKNTAYLQMNSLKPEDTAVYYCARLSQGMVALDYWGQGTLVTVSS

>  <pKd>
9.22

$$$$
>  <binder>
variant 6-66 (Fc fusion) VHH: EVQLVESGGGLVQPGGSLRLSCAASGLTFSLFAMGWFRQAPGKERELVAAISSGGSTDYADSVKGRFTISADNSKNTAYLQMNSLKPEDTAVYYCARGNTKYYYDSSGYSSAFDYWGQGTLVTVSS

>  <pKd>
8.11

$$$$
>  <binder>
variant 6-50 (Fc fusion) VHH: EVQLVESGGGLVQPGGSLRLSCAASGFSFDRWAMGWFRQAPGKEREWVASLATGGNTNYADSVKGRFTISADNSKNTAYLQMNSLKPEDTAVYYCARVTNYDAFDIWGQGTLVTVSS

>  <pKd>
7.17

$$$$
>  <binder>
variant 5-56 (Fc fusion) VHH: EVQLVESGGGLVQPGGSLRLSCAASGRTFSSNMGWFRQAPGKEREFVARIFGGDRTLYADSVKGRFTISADNSKNTAYLQMNSLKPEDTAVYYCADINGDWGQGTLVTVSS

>  <pKd>
8.55

$$$$
>  <binder>
variant 5-63 (Fc fusion) VHH: EVQLVESGGGLVQPGGSLRLSCAASGFSLDYYDMGWFRQAPGKEREFVAALGWSGGSTDYADSVKGRFTISADNSKNTAYLQMNSLKPEDTAVYYCAAGNGGRYGIVERWGQGTLVTVSS

>  <pKd>
9.40

$$$$
>  <binder>
variant 6-77 (Fc fusion) VHH: EVQLVESGGGLVQPGGSLRLSCAASGFTFDRSWMGWFRQAPGKEREFVAAVTEGGTTSYADSVKGRFTISADNSKNTAYLQMNSLKPEDTAVYYCARADYDFDYWGQGTLVTVSS

>  <pKd>
8.46

$$$$
>  <binder>
variant 6-30 (Fc fusion) VHH: EVQLVESGGGLVQPGGSLRLSCAASGFAFGDSWMGWFRQAPGKEREFVATINWSGVTAYADSVKGRFTISADNSKNTAYLQMNSLKPEDTAVYYCARADGYFDYWGQGTLVTVSS

>  <pKd>
10.00

$$$$
